assay: total protein half-life in vivo (active degradation + dilution); higher = more stable protein; conditions: E. coli NCM3722 delta-clpP delta-lon delta-hslV; growth: N-lim chemostat; doubling time 6 h
Given measured total protein half-life in vivo, output MET if it is greater than or equal to 6 h and NOT MET if not.

Does the reported total protein half-life in vivo for MRFYRPLGRISALTFDLDDTLYDNRPVILRTEREALTFVQNYHPALRSFQNEDLQRLRQAVREAEPEIYHDVTRWRFRSIEQAMLDAGLSAEEASAGAHAAMINFAKWRSRIDVPQQTHDTLKQLAKKWPLVAITNGNAQPELFGLGDYFEFVLRAGPHGRSKPFSDMYFLAAEKLNVPIGEILHVGDDLTTDVGGAIRSGMQACWIRPENGDLMQTWDSRLLPHLEISRLASLTSLI [P0ADP0] fall at or above the 6 h mark?
NOT MET

Quick check, total protein half-life in vivo >= 6 h? MDKVLDSALLSSANKRKGILAIGAHPDDIELGCGASLARLAQKGIYIAAVVMTTGNSGTDGIIDRHEESRNALKILGCHQTIHLNFADTRAHLQLNDMISALEDIIKNQIPSDVEIMRVYTMHDADRHQDHLAVYQASMVACRTIPQILGYETPSTWLSFMPQVFESVKEEYFTVKLAALKKHKS
NOT MET

Hi team, for MQFNIPTLLTLFRVILIPFFVLVFYLPVTWSPFAAALIFCVAAVTDWFDGFLARRWNQSTRFGAFLDPVADKVLVAIAMVLVTEHYHSWWVTLPAATMIAREIIISALREWMAELGKRSSVAVSWIGKVKTTAQMVALAWLLWRPNIWVEYAGIALFFVAAVLTLWSMLQYLSAARADLLDQ [P0ABF8] , is the recorded total protein half-life in vivo at or above 6 h?
MET

API: above_or_equal(metric=total protein half-life in vivo, cutoff=6 h) for item MSLSRTQIVNWLTRCGDIFSTESEYLTGLDREIGDADHGLNMNRGFSKVVEKLPAIADKDIGFILKNTGMTLLSSVGGASGPLFGTFFIRAAQATQARQSLTLEELYQMFRDGADGVISRGKAEPGDKTMCDVWVPVVESLRQSSEQNLSVPVALEAASSIAESAAQSTITMQARKGRASYLGERSIGHQDPGATSVMFMMQMLALAAKE
NOT MET

Decide: is the reported value of total protein half-life in vivo for MSKSRLTVFSFVRRFLLRLMVVLAVFWGGGIALFSVAPVPFSAVMVERQVSAWLHGNFRYVAHSDWVSMDQISPWMGLAVIAAEDQKFPEHWGFDVASIEKALAHNERNENRIRGASTISQQTAKNLFLWDGRSWVRKGLEAGLTLGIETVWSKKRILTVYLNIAEFGDGVFGVEAAAQRYFHKPASKLTRSEAALLAAVLPNPLRFKVSSPSGYVRSRQAWILRQMYQLGGEPFMQQHQLD equal to or greater than 6 h?
MET

# check: total protein half-life in vivo of MQIIFGEKCVSLLRLFFAAVLMLWCAQTAAYSGQCHTTQGNPYIGVNFGVKTLEEEANTAGVVKDKFYQWNESNDYYVSCDCDKDNVRSGRWAFAADSPLVYLGDNWYKINDYLAAKVLLQVKGSSPTAVPFENVGTGGDTRWHICDPGGQRLGGQGASGNSGSFSLKILQPFVGSVVIPPMALARLYECYNIPAGDSCTTTGTPVLVYYLSGTINSLGSCSVNAGETIEVDLGDVFAANFRVVGHKPLGARTAELAIPVRCNTGNAGLVNVNLSLTATTDPSYPQAIKTSRPGVGVVVTDSQNNIISPAGGTLPLSIPDDADSIARMNVYPVSTTGVPPETGRFEATATVRINFD is greater than or equal to 6 h
NOT MET

Determine whether measured total protein half-life in vivo meets or exceeds 6 h for MTDLIQRPRRLRKSPALRAMFEETTLSLNDLVLPIFVEEEIDDYKAVEAMPGVMRIPEKHLAREIERIANAGIRSVMTFGISHHTDETGSDAWREDGLVARMSRICKQTVPEMIVMSDTCFCEYTSHGHCGVLCEHGVDNDATLENLGKQAVVAAAAGADFIAPSAAMDGQVQAIRQALDAAGFKDTAIMSYSTKFASSFYGPFREAAGSALKGDRKSYQMNPMNRREAIRESLLDEAQGADCLMVKPAGAYLDIVRELRERTELPIGAYQVSGEYAMIKFAALAGAIDEEKVVLESLGSIKRAGADLIFSYFALDLAEKKILR [P0ACB2]
NOT MET

I'd appreciate it if you could say whether MANWQSIDELQDIASDLPRFIHALDELSRRLGLNITPLTADHISLRCHQNATAERWRRGFEQCGELLSENMINGRPICLFKLHEPVQVAHWQFSIVELPWPGEKRYPHEGWEHIEIVLPGDPETLNARALALLSDEGLSLPGISVKTSSPKGEHERLPNPTLAVTDGKTTIKFHPWSIEEIVASEQSA has total protein half-life in vivo at least equal to 6 h.
NOT MET

Is total protein half-life in vivo for MFTGSIVAIVTPMDEKGNVCRASLKKLIDYHVASGTSAIVSVGTTGESATLNHDEHADVVMMTLDLADGRIPVIAGTGANATAEAISLTQRFNDSGIVGCLTVTPYYNRPSQEGLYQHFKAIAEHTDLPQILYNVPSRTGCDLLPETVGRLAKVKNIIGIKEATGNLTRVNQIKELVSDDFVLLSGDDASALDFMQLGGHGVISVTANVAARDMAQMCKLAAEGHFAEARVINQRLMPLHNKLFVEPNPIPVKWACKELGLVATDTLRLPMTPITDSGRETVRAALKHAGLL [P0A6L2] at or above 6 h?
NOT MET

Check this sequence for total protein half-life in vivo at or above 6 h: MTIKNKMLLGALLLVTSAAWAAPATAGSTNTSGISKYELSSFIADFKHFKPGDTVPEMYRTDEYNIKQWQLRNLPAPDAGTHWTYMGGAYVLISDTDGKIIKAYDGEIFYHR
NOT MET
